details: in n-butanol, 283.15 K
Property Measured: solubility (mole fraction)
Answer with a number only.

# lookup: solubility (mole fraction) of "CNC(=O)c1cc(Oc2ccc(N)cc2)ccn1"
0.0044

---

details: in acetonitrile, 298.15 K
Property Measured: solubility (mole fraction)
Answer with a number only.

# lookup: solubility (mole fraction) of "CNC(=O)c1cc(Oc2ccc(N)cc2)ccn1"
0.0595

---

conditions: in acetonitrile, 288.15 K
Property Measured: solubility (mole fraction)

# lookup: solubility (mole fraction) of "CNC(=O)c1cc(Oc2ccc(N)cc2)ccn1"
0.0394

---

details: in n-propanol, 308.15 K
Property Measured: solubility (mole fraction)
Answer with a number only.

# lookup: solubility (mole fraction) of "CNC(=O)c1cc(Oc2ccc(N)cc2)ccn1"
0.0237

---

conditions: in methanol, 293.15 K
Property Measured: solubility (mole fraction)
Answer with a number only.

# lookup: solubility (mole fraction) of "CNC(=O)c1cc(Oc2ccc(N)cc2)ccn1"
0.0203

---

conditions: in THF, 293.15 K
Property Measured: solubility (mole fraction)
Answer with a number only.

# lookup: solubility (mole fraction) of "CNC(=O)c1cc(Oc2ccc(N)cc2)ccn1"
0.118

---

conditions: in ethanol, 303.15 K
Property Measured: solubility (mole fraction)
Answer with a number only.

# lookup: solubility (mole fraction) of "CNC(=O)c1cc(Oc2ccc(N)cc2)ccn1"
0.0249

---

conditions: in ethyl acetate, 278.15 K
Property Measured: solubility (mole fraction)
Answer with a number only.

# lookup: solubility (mole fraction) of "CNC(=O)c1cc(Oc2ccc(N)cc2)ccn1"
0.0528

---

conditions: in methanol, 323.15 K
Property Measured: solubility (mole fraction)
Answer with a number only.

# lookup: solubility (mole fraction) of "CNC(=O)c1cc(Oc2ccc(N)cc2)ccn1"
0.105

---

details: in THF, 308.15 K
Property Measured: solubility (mole fraction)
Answer with a number only.

# lookup: solubility (mole fraction) of "CNC(=O)c1cc(Oc2ccc(N)cc2)ccn1"
0.158

---

details: in THF, 328.15 K
Property Measured: solubility (mole fraction)
Answer with a number only.

# lookup: solubility (mole fraction) of "CNC(=O)c1cc(Oc2ccc(N)cc2)ccn1"
0.233

---

conditions: in n-butanol, 308.15 K
Property Measured: solubility (mole fraction)

# lookup: solubility (mole fraction) of "CNC(=O)c1cc(Oc2ccc(N)cc2)ccn1"
0.0171

---

settings: in ethyl acetate, 328.15 K
Property Measured: solubility (mole fraction)
Answer with a number only.

# lookup: solubility (mole fraction) of "CNC(=O)c1cc(Oc2ccc(N)cc2)ccn1"
0.28

---

conditions: in methanol, 308.15 K
Property Measured: solubility (mole fraction)

# lookup: solubility (mole fraction) of "CNC(=O)c1cc(Oc2ccc(N)cc2)ccn1"
0.0488

---

conditions: in n-propanol, 298.15 K
Property Measured: solubility (mole fraction)
Answer with a number only.

# lookup: solubility (mole fraction) of "CNC(=O)c1cc(Oc2ccc(N)cc2)ccn1"
0.0135

---

details: in THF, 313.15 K
Property Measured: solubility (mole fraction)
Answer with a number only.

# lookup: solubility (mole fraction) of "CNC(=O)c1cc(Oc2ccc(N)cc2)ccn1"
0.173

---

details: in methanol, 318.15 K
Property Measured: solubility (mole fraction)
Answer with a number only.

# lookup: solubility (mole fraction) of "CNC(=O)c1cc(Oc2ccc(N)cc2)ccn1"
0.082

---

conditions: in n-butanol, 278.15 K
Property Measured: solubility (mole fraction)
Answer with a number only.

# lookup: solubility (mole fraction) of "CNC(=O)c1cc(Oc2ccc(N)cc2)ccn1"
0.00322

---

conditions: in acetonitrile, 318.15 K
Property Measured: solubility (mole fraction)
Answer with a number only.

# lookup: solubility (mole fraction) of "CNC(=O)c1cc(Oc2ccc(N)cc2)ccn1"
0.133

---

settings: in ethanol, 283.15 K
Property Measured: solubility (mole fraction)
Answer with a number only.

# lookup: solubility (mole fraction) of "CNC(=O)c1cc(Oc2ccc(N)cc2)ccn1"
0.00707

---

settings: in methanol, 283.15 K
Property Measured: solubility (mole fraction)
Answer with a number only.

# lookup: solubility (mole fraction) of "CNC(=O)c1cc(Oc2ccc(N)cc2)ccn1"
0.0117

---

settings: in n-butanol, 318.15 K
Property Measured: solubility (mole fraction)
Answer with a number only.

# lookup: solubility (mole fraction) of "CNC(=O)c1cc(Oc2ccc(N)cc2)ccn1"
0.0287

---

conditions: in methanol, 303.15 K
Property Measured: solubility (mole fraction)

# lookup: solubility (mole fraction) of "CNC(=O)c1cc(Oc2ccc(N)cc2)ccn1"
0.0369

---

conditions: in n-propanol, 288.15 K
Property Measured: solubility (mole fraction)
Answer with a number only.

# lookup: solubility (mole fraction) of "CNC(=O)c1cc(Oc2ccc(N)cc2)ccn1"
0.00778

---

conditions: in acetonitrile, 328.15 K
Property Measured: solubility (mole fraction)
Answer with a number only.

# lookup: solubility (mole fraction) of "CNC(=O)c1cc(Oc2ccc(N)cc2)ccn1"
0.195

---

conditions: in ethyl acetate, 313.15 K
Property Measured: solubility (mole fraction)
Answer with a number only.

# lookup: solubility (mole fraction) of "CNC(=O)c1cc(Oc2ccc(N)cc2)ccn1"
0.179

---

details: in ethanol, 318.15 K
Property Measured: solubility (mole fraction)
Answer with a number only.

# lookup: solubility (mole fraction) of "CNC(=O)c1cc(Oc2ccc(N)cc2)ccn1"
0.0587

---

conditions: in methanol, 278.15 K
Property Measured: solubility (mole fraction)
Answer with a number only.

# lookup: solubility (mole fraction) of "CNC(=O)c1cc(Oc2ccc(N)cc2)ccn1"
0.00809

---

conditions: in THF, 283.15 K
Property Measured: solubility (mole fraction)
Answer with a number only.

# lookup: solubility (mole fraction) of "CNC(=O)c1cc(Oc2ccc(N)cc2)ccn1"
0.0978

---

details: in acetonitrile, 293.15 K
Property Measured: solubility (mole fraction)
Answer with a number only.

# lookup: solubility (mole fraction) of "CNC(=O)c1cc(Oc2ccc(N)cc2)ccn1"
0.0491

---

conditions: in methanol, 288.15 K
Property Measured: solubility (mole fraction)
Answer with a number only.

# lookup: solubility (mole fraction) of "CNC(=O)c1cc(Oc2ccc(N)cc2)ccn1"
0.0158

---

conditions: in n-butanol, 303.15 K
Property Measured: solubility (mole fraction)

# lookup: solubility (mole fraction) of "CNC(=O)c1cc(Oc2ccc(N)cc2)ccn1"
0.0132

---

details: in n-propanol, 318.15 K
Property Measured: solubility (mole fraction)
Answer with a number only.

# lookup: solubility (mole fraction) of "CNC(=O)c1cc(Oc2ccc(N)cc2)ccn1"
0.0396

---

conditions: in n-butanol, 328.15 K
Property Measured: solubility (mole fraction)
Answer with a number only.

# lookup: solubility (mole fraction) of "CNC(=O)c1cc(Oc2ccc(N)cc2)ccn1"
0.0466

---

details: in acetonitrile, 278.15 K
Property Measured: solubility (mole fraction)
Answer with a number only.

# lookup: solubility (mole fraction) of "CNC(=O)c1cc(Oc2ccc(N)cc2)ccn1"
0.0273

---

conditions: in ethyl acetate, 293.15 K
Property Measured: solubility (mole fraction)

# lookup: solubility (mole fraction) of "CNC(=O)c1cc(Oc2ccc(N)cc2)ccn1"
0.0919

---

details: in THF, 298.15 K
Property Measured: solubility (mole fraction)
Answer with a number only.

# lookup: solubility (mole fraction) of "CNC(=O)c1cc(Oc2ccc(N)cc2)ccn1"
0.129

---

settings: in n-butanol, 298.15 K
Property Measured: solubility (mole fraction)
Answer with a number only.

# lookup: solubility (mole fraction) of "CNC(=O)c1cc(Oc2ccc(N)cc2)ccn1"
0.00986

---

settings: in n-butanol, 313.15 K
Property Measured: solubility (mole fraction)
Answer with a number only.

# lookup: solubility (mole fraction) of "CNC(=O)c1cc(Oc2ccc(N)cc2)ccn1"
0.0222

---

details: in THF, 318.15 K
Property Measured: solubility (mole fraction)
Answer with a number only.

# lookup: solubility (mole fraction) of "CNC(=O)c1cc(Oc2ccc(N)cc2)ccn1"
0.192

---

settings: in acetonitrile, 283.15 K
Property Measured: solubility (mole fraction)
Answer with a number only.

# lookup: solubility (mole fraction) of "CNC(=O)c1cc(Oc2ccc(N)cc2)ccn1"
0.0317

---

settings: in ethyl acetate, 323.15 K
Property Measured: solubility (mole fraction)
Answer with a number only.

# lookup: solubility (mole fraction) of "CNC(=O)c1cc(Oc2ccc(N)cc2)ccn1"
0.238

---

conditions: in methanol, 313.15 K
Property Measured: solubility (mole fraction)
Answer with a number only.

# lookup: solubility (mole fraction) of "CNC(=O)c1cc(Oc2ccc(N)cc2)ccn1"
0.0634

Origin of the recorded values: BigSolDB 2.1
